# Tested on: OVCAR-5 ovarian
# Method Summary: NCI tumour cell line growth inhibition, 48 h
Assay Endpoint: GI50

• O=c1[nH]c2ccc(Cl)cc2cc1CSc1ccc(Nc2nccc(-c3ccc(Cl)cc3)n2)cc1 = 57.8 µM
• CC1=C2C(=C[C@@](C)(COP(=O)(Oc3ccccc3)Oc3ccccc3)[C@@H]2O)C(=O)[C@@](C)(O)C12CC2 = 0.359 µM
• Fc1ccc(/C=C/c2nc3ccccc3n3c(-c4ccc(Cl)cc4)nnc23)cc1 = 23.3 µM

Next compound, please.
For `COc1ccc(N=Nc2c(N)nn3c(-c4cc5cc(Br)ccc5oc4=O)ccnc23)cc1` , what is its reported GI50? 4.86 µM

====

# Test system: LOX IMVI melanoma
# Method Summary: NCI tumour cell line growth inhibition, 48 h
Assay Endpoint: TGI (µM)
Number in µM, nothing else.

Please review the entries below; each comes with its answer.
- Fc1ccc(/C=C/c2nc3ccccc3n3c(-c4ccc(Cl)cc4)nnc23)cc1: 3.41
- COc1ccc(N=Nc2c(N)nn3c(-c4cc5cc(Br)ccc5oc4=O)ccnc23)cc1: 16.4
- O=c1[nH]c2ccc(Cl)cc2cc1CSc1ccc(Nc2nccc(-c3ccc(Cl)cc3)n2)cc1: 60.9

Which TGI is listed for `COc1ccc(C(=O)/C=C/c2cccc(Br)c2)cc1S(N)(=O)=O` ? 2.48

And `CC1=C2C(=C[C@@](C)(COP(=O)(Oc3ccccc3)Oc3ccccc3)[C@@H]2O)C(=O)[C@@](C)(O)C12CC2` ? 0.703

====

# Tested on: OVCAR-3 ovarian
# Method Summary: NCI tumour cell line growth inhibition, 48 h
Assay Endpoint: TGI

Example cases with answers are listed next.
- COc1ccc(C(=O)/C=C/c2cccc(Br)c2)cc1S(N)(=O)=O: 3.17 µM
- COc1ccc(N=Nc2c(N)nn3c(-c4cc5cc(Br)ccc5oc4=O)ccnc23)cc1: > 100 µM
- CN(C)c1nc(NCCNS(=O)(=O)c2ccc(C3=Nc4c(N)nc(N)nc4NC(c4ccccc4)C3)cc2)nc(Nc2ccc(F)cc2)n1 (centres undefined): > 100 µM

# ---- query compound ----
# get_value(readout='TGI', item= `CC1=C2C(=C[C@@](C)(COP(=O)(Oc3ccccc3)Oc3ccccc3)[C@@H]2O)C(=O)[C@@](C)(O)C12CC2` ) 1.08 µM

====

# Tested on: UACC-257 melanoma
# Method Summary: NCI tumour cell line growth inhibition, 48 h
Assay Endpoint: GI50

- CN(C)c1nc(NCCNS(=O)(=O)c2ccc(C3=Nc4c(N)nc(N)nc4NC(c4ccccc4)C3)cc2)nc(Nc2ccc(F)cc2)n1 (centres undefined): 87.2 µM
- Fc1ccc(/C=C/c2nc3ccccc3n3c(-c4ccc(Cl)cc4)nnc23)cc1: 38.6 µM
- COc1ccc(C(=O)/C=C/c2c(F)cccc2Cl)cc1S(N)(=O)=O: 2.99 µM

// switching to the query molecule
# get_value(readout='GI50', item= `COc1ccc(N=Nc2c(N)nn3c(-c4cc5cc(Br)ccc5oc4=O)ccnc23)cc1` ) 7.3 µM

====

Each item that follows carries a reported TGI.
# Tested on: SNB-75 CNS
# Method Summary: NCI tumour cell line growth inhibition, 48 h
Answer with a number only, understood to be in µM.

These solved cases illustrate the format of a correct answer.
• COc1ccc(N=Nc2c(N)nn3c(-c4cc5cc(Br)ccc5oc4=O)ccnc23)cc1 = 5.34
• O=c1[nH]c2ccc(Cl)cc2cc1CSc1ccc(Nc2nccc(-c3ccc(Cl)cc3)n2)cc1 = 29.7

API: the following record is the query input.
SNB-75 CNS / TGI / `CC1=C2C(=C[C@@](C)(COP(=O)(Oc3ccccc3)Oc3ccccc3)[C@@H]2O)C(=O)[C@@](C)(O)C12CC2` : value? 1.27
